Reference source: ChEMBL document CHEMBL1122761

Reported ED30 by item:
# target.entity: Adrenergic receptor beta (Rattus norvegicus) (UniProt P18090+P10608+P26255)
# test.protocol: Beta agonist activity against heart rate in rats
# Assay type: functional, tissue-based

Below: 6 compounds and their reported ED30.
- compound: "CC(C)NCC(O)COc1ccc(SCn2cccn2)cc1 (centres undefined)"
  target.entity: "Adrenergic receptor beta (Rattus norvegicus) (UniProt P18090+P10608+P26255)"
  ED30: "> 1 mg/kg"
- compound: "CC(C)NCC(O)COc1ccc(OCCn2cccn2)cc1 (centres undefined)"
  target.entity: "Adrenergic receptor beta (Rattus norvegicus) (UniProt P18090+P10608+P26255)"
  ED30: "> 1 mg/kg"
- compound: "CC(C)NCC(O)COc1ccc(OCCn2cncn2)cc1 (centres undefined)"
  target.entity: "Adrenergic receptor beta (Rattus norvegicus) (UniProt P18090+P10608+P26255)"
  ED30: "> 1 mg/kg"
- compound: "CC(C)NCC(O)COc1ccc(OCCn2nc3c(n2)CCCC3)cc1 (centres undefined)"
  target.entity: "Adrenergic receptor beta (Rattus norvegicus) (UniProt P18090+P10608+P26255)"
  ED30: "> 1 mg/kg"
- compound: "CC(C)NCC(O)COc1ccc(OCn2cc(Cl)cn2)cc1 (centres undefined)"
  target.entity: "Adrenergic receptor beta (Rattus norvegicus) (UniProt P18090+P10608+P26255)"
  ED30: "0.007 mg/kg"
- compound: "CC(C)NCC(O)COc1ccc(CCn2cncn2)cc1 (centres undefined)"
  target.entity: "Adrenergic receptor beta (Rattus norvegicus) (UniProt P18090+P10608+P26255)"
  ED30: "> 1 mg/kg"

Q. What value of ED30 has been reported for the following compound? CC(C)NCC(O)COc1ccc(OCn2cccn2)cc1 (centres undefined)
A. > 1 mg/kg

Q. Next up: CC(C)NCC(O)COc1ccc(OCn2ccnn2)cc1 (centres undefined)
A. 0.05 mg/kg

Q. Next up: CC(C)NCC(O)COc1ccc(OCCn2nccn2)cc1 (centres undefined)
A. 0.014 mg/kg

---

# target.entity: Beta-2 adrenergic receptor (Rattus norvegicus) (UniProt P10608)
# Sequence (P10608 whole entry, looked up): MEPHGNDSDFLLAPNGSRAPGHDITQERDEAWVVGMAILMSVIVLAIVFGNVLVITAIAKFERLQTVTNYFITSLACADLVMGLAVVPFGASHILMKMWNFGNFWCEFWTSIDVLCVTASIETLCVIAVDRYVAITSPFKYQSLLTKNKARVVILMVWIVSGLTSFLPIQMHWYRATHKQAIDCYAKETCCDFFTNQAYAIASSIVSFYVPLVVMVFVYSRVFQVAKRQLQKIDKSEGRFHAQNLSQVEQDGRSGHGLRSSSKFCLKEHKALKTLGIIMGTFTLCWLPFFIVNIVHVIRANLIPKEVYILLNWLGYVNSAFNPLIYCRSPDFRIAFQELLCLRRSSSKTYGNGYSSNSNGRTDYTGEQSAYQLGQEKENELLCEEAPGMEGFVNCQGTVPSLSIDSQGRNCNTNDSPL
# test.protocol: Inhibition of isoprenaline induced […] response in anaesthetised rats.
measurement.type: ED50

Below: 3 molecules and their reported ED50.
- molecule: "CC(C)NCC(O)COc1ccc(OCn2cc(Cl)cn2)cc1 (centres undefined)"
  ED50: "2.43 mg/kg"
- molecule: "CC(C)NCC(O)COc1ccc(OCn2ccnn2)cc1 (centres undefined)"
  ED50: "> 2 mg/kg"
- molecule: "CC(C)NCC(O)COc1ccc(OCn2cccn2)cc1 (centres undefined)"
  ED50: "> 2 mg/kg"

Turning now to a further molecule:
Q. What value of ED50 has been reported for the following molecule? CC(C)NCC(O)COc1ccc(OCn2nccn2)cc1 (centres undefined)
A. > 2 mg/kg

---

# target.entity: Beta-1 adrenergic receptor (Rattus norvegicus) (UniProt P18090)
# Sequence (P18090 whole entry, looked up): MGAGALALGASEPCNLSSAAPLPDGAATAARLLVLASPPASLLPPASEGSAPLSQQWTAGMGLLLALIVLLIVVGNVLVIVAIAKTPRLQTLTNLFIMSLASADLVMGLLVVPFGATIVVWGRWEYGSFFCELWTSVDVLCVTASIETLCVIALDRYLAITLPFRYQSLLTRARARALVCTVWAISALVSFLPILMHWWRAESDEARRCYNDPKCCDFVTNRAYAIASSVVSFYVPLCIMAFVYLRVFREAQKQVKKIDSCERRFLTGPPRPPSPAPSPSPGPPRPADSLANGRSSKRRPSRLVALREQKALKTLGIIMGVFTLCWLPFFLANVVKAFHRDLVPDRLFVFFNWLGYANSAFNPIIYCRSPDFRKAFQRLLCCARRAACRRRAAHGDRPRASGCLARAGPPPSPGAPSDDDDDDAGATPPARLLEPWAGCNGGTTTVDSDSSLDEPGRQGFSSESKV
# test.protocol: Inhibition of isoprenaline induced tachycardia in anaesthetised rats.
# Format: functional
measurement.type: log10(ED50) (log10 of the value in mg/kg)
Heads up: the numbers are on a log10 scale; they represent ED50 in mg/kg.

Below: 10 compounds and their reported log10(ED50).
- compound: "CC(C)NCC(O)COc1ccc(OCCn2ccnc2)cc1 (stereo unspecified)"
  measurement.type: "log10(ED50)"
  reported.value: -0.01
- compound: "CC(C)(C)NCC(O)COc1ccc(OCCn2cccn2)cc1 (stereo unspecified)"
  measurement.type: "log10(ED50)"
  reported.value: -1.17
- compound: "CC(C)NCC(O)COc1ccc(OCCn2ncc3ccccc32)cc1 (stereo unspecified)"
  measurement.type: "log10(ED50)"
  reported.value: -0.58
- compound: "CC(C)NCC(O)COc1ccc(CCn2ccnc2)cc1 (stereo unspecified)"
  measurement.type: "log10(ED50)"
  reported.value: -0.73
- compound: "CC(C)NCC(O)COc1ccc(OCCn2cc(-c3ccccc3)cn2)cc1 (stereo unspecified)"
  measurement.type: "log10(ED50)"
  reported.value: -0.80
- compound: "CC(C)NCC(O)COc1ccc(OCn2ccnn2)cc1 (stereo unspecified)"
  measurement.type: "log10(ED50)"
  reported.value: -1.40
- compound: "CC(C)NCC(O)COc1ccc(OCCn2nc3ccccc3n2)cc1 (stereo unspecified)"
  measurement.type: "log10(ED50)"
  reported.value: -1.30
- compound: "CC(C)NCC(O)COc1ccc(OCCn2nnc3ccccc32)cc1 (stereo unspecified)"
  measurement.type: "log10(ED50)"
  reported.value: 0.10
- compound: "CC(C)NCC(O)COc1ccc(CCCn2cccn2)cc1 (stereo unspecified)"
  measurement.type: "log10(ED50)"
  reported.value: -0.11
- compound: "CC(C)NCC(O)COc1ccc(OCCn2cnc3ccccc32)cc1 (stereo unspecified)"
  measurement.type: "log10(ED50)"
  reported.value: -0.16

Q. What value of log10(ED50) has been reported for the following compound? CC(C)NCC(O)COc1ccc(CCn2cncn2)cc1 (stereo unspecified)
A. -0.63

Q. Next up: CC(C)NCC(O)COc1ccc(OCn2cccn2)cc1 (stereo unspecified)
A. -1.55

Q. Next up: CC(C)NCC(O)COc1ccc(OCCn2cc(Cl)cn2)cc1 (stereo unspecified)
A. -1.62

Q. Next up: CC(C)NCC(O)COc1ccc(SCn2cccn2)cc1 (stereo unspecified)
A. -0.49

Q. Next up: CC(C)NCC(O)COc1ccc(Cn2ccnc2)cc1 (stereo unspecified)
A. -0.21

---

Reported pKa by item:
# test.protocol: Acid dissociation constant was determined
# Assay type: ADME

Below: 3 compounds and their reported pKa.
- compound: "CC(C)NCC(O)COc1ccc(OCn2nccn2)cc1 (stereo unspecified)"
  reported.value: "< 1"
- compound: "CC(C)NCC(O)COc1ccc(OCCn2cc(Cl)cn2)cc1 (stereo unspecified)"
  reported.value: "< 0.6"
- compound: "CC(C)NCC(O)COc1ccc(OCn2cc(Cl)cn2)cc1 (stereo unspecified)"
  reported.value: "< 0.6"

Q. What value of pKa has been reported for the following compound? CC(C)NCC(O)COc1ccc(OCCn2nccn2)cc1 (stereo unspecified)
A. < 1

Q. Next up: CC(C)NCC(O)COc1ccc(OCCn2cccn2)cc1 (stereo unspecified)
A. 2

Q. Next up: CC(C)NCC(O)COc1ccc(OCn2ccnn2)cc1 (stereo unspecified)
A. 1.25

---

# target.entity: Beta-2 adrenergic receptor (Rattus norvegicus)
# test.protocol: Beta-2 adrenergic receptor antagonism in rats anesthetized with pentobarbitone sodium (75 mg/kg ip)
Reported ED50 by item:

Below: 4 compounds and their reported ED50.
- compound: "CC(C)NCC(O)COc1ccc(OCCn2ncc3ccccc32)cc1 (configuration not stated)"
  ED50: "> 2 mg/kg"
- compound: "CC(C)NCC(O)COc1ccc(OCCn2nccn2)cc1 (configuration not stated)"
  ED50: "> 2 mg/kg"
- compound: "CC(C)NCC(O)COc1ccc(SCn2cccn2)cc1 (configuration not stated)"
  ED50: "> 2 mg/kg"
- compound: "CC(C)NCC(O)COc1ccc(SCCn2cccn2)cc1 (configuration not stated)"
  ED50: "> 2 mg/kg"

Q. What value of ED50 has been reported for the following compound? CC(C)NCC(O)COc1ccc(Cn2ccnc2)cc1 (configuration not stated)
A. > 1 mg/kg

Q. Next up: CC(C)NCC(O)COc1ccc(OCCn2cc(Cl)cn2)cc1 (configuration not stated)
A. 0.523 mg/kg

Q. Next up: CC(C)NCC(O)COc1ccc(CCCn2cccn2)cc1 (configuration not stated)
A. > 2 mg/kg

Q. Next up: CC(C)NCC(O)COc1ccc(CCn2cccn2)cc1 (configuration not stated)
A. > 2 mg/kg

Q. Next up: CC(C)(C)NCC(O)COc1ccc(OCCn2cccn2)cc1 (configuration not stated)
A. 1.04 mg/kg

Q. Next up: CC(C)NCC(O)COc1ccc(OCCn2cncn2)cc1 (configuration not stated)
A. > 2 mg/kg

Q. Next up: CC(C)NCC(O)COc1ccc(OCCn2nc3ccccc3n2)cc1 (configuration not stated)
A. 0.988 mg/kg

Q. Next up: CC(C)NCC(O)COc1ccc(OCCn2nnc3ccccc32)cc1 (configuration not stated)
A. > 2 mg/kg

---

Reported ED30 by item:
# target.entity: Adrenergic receptor beta (Rattus norvegicus) (UniProt P18090+P10608+P26255)
# test.protocol: Beta agonist activity against heart rate in rats
# Format: functional, tissue-based

Below: 2 compounds and their reported ED30.
- compound: "CC(C)NCC(O)COc1ccc(OCCCn2cccn2)cc1 (centres undefined)"
  ED30: "> 1 mg/kg"
- compound: "CC(C)NCC(O)COc1ccc(OCCn2nnc3ccccc32)cc1 (centres undefined)"
  ED30: "> 1 mg/kg"

Q. Item: CC(C)NCC(O)COc1ccc(OCn2nccn2)cc1 (centres undefined) Test system: Adrenergic receptor beta (Rattus norvegicus) (UniProt P18090+P10608+P26255) Read-out: ED30 Value: ?
A. 0.019 mg/kg

Q. Next up: CC(C)NCC(O)COc1ccc(OCCCn2cncn2)cc1 (centres undefined)
A. > 1 mg/kg

Q. Next up: CC(C)NCC(O)COc1ccc(CCn2cccn2)cc1 (centres undefined)
A. > 1 mg/kg

Q. Next up: CC(C)NCC(O)COc1ccc(OCCn2cc(-c3ccccc3)cn2)cc1 (centres undefined)
A. > 1 mg/kg

Q. Next up: CC(C)(C)NCC(O)COc1ccc(OCCn2cccn2)cc1 (centres undefined)
A. 0.154 mg/kg

Q. Next up: CC(C)NCC(O)COc1ccc(CCCn2cccn2)cc1 (centres undefined)
A. > 1 mg/kg

Q. Next up: CC(C)NCC(O)COc1ccc(CCn2ccnc2)cc1 (centres undefined)
A. > 1 mg/kg
